Test system: HuH-7 hepatocellular carcinoma cells
experimentSummary: CellTiter Glo (CTG) Assay
measurementConditions: Homo sapiens, Huh-7, 72 h, read-out: HUH7 proliferation (nM) CTG
measurementLabel: IC50 (nM)

I. COCCNc1cc(NC(=O)N2CCCc3cc(C(C)N(C)C(C)=O)c(C=O)nc32)ncc1C#N (racemic) [Example 135]
II. CC(C)Oc1cc(NC(=O)N2CCCc3cc(CN(C)C(=O)CO)c(C=O)nc32)ncc1C#N [Example 141]
III. N#Cc1cnc(NC(=O)N2CCCc3cc(CO)c(C=O)nc32)cc1OCC1CCCCO1 (racemic) [Example 44]
Sort the items above by IC50, starting with the smallest value. Please express your ranking as an ordered list of the labels.
II, III, I

###

targetEntity: Tel-FGFR4 (Homo sapiens (Human), UniProt P22455)
Sequence (P22455 other isoform, or with tags, fused parts or gaps): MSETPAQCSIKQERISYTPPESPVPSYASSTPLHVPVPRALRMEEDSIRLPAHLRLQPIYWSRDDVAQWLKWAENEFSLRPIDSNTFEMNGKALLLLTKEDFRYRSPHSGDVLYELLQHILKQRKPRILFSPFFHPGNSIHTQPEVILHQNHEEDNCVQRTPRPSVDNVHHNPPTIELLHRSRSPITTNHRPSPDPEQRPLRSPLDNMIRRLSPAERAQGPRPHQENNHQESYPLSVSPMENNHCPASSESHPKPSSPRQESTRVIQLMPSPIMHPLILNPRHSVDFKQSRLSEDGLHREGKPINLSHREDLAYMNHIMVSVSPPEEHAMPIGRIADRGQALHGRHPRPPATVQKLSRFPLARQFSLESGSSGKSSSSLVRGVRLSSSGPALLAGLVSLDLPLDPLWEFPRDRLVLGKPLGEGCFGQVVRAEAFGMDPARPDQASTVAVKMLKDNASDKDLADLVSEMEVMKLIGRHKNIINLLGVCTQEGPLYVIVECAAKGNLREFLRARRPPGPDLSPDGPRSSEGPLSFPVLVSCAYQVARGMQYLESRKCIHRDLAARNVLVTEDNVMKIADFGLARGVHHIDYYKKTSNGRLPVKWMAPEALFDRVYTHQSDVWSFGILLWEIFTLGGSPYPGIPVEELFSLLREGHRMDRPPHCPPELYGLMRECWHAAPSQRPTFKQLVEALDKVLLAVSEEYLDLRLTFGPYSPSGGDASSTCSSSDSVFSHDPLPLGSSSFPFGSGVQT
experimentSummary: In vitro cellular kinase assay for FGFR4 (BaF3-Tel-FGFR4 cells, MSD capture ELISA of tyrosine phosphorylation)
Type: cell-based
measurementConditions: BaF3-Tel-FGFR4 cells, 1 hour incubation; read-out: Cellular BaF3 FGFR4 IC50
Reported pIC50 values are given for each entry in this list.
Reminder that pIC50 means the negative base-10 logarithm of the concentration expressed in mol/L.

COCCNc1cc(NC(=O)N2c3nc(C=O)c(CN4CCN(C)CC4=O)cc3CC[C@@H]2C)ncc1C#N [Example 228]
8.21

Suppose we examine the compound COCCNc1cc(NC(=O)N2CCCc3cc(CN4C[C@@H](C)N[C@@H](C)C4)c(C=O)nc32)ncc1C#N [Example 242] ; what pIC50 value has been reported?
7.57

Suppose we examine the compound COCCNc1cc(NC(=O)N2CCCc3cc(-c4cn(C)nc4C)c(C=O)nc32)ncc1C#N [Example 250] ; what pIC50 value has been reported?
7.84

Suppose we examine the compound N#Cc1cnc(NC(=O)N2CCCc3cc(CO)c(C=O)nc32)cc1OCC1CCCO1 (racemic) [Example 43] ; what pIC50 value has been reported?
8.12

###

targetEntity: FGFR4 (GST-FGFR4(388-802)) (Homo sapiens (Human))
experimentSummary: In-vitro biochemical kinase assay for FGFR4 (Caliper microfluidic mobility shift)
measurementConditions: biochemical FGFR4 assay; read-out: Biochemical IC50
pIC50: −log10 of the molar value.
measurementLabel: pIC50

Worked set:
COc1cc(NC(=O)N2CCCc3cc(CN4CCN(C)CC4=O)c(C=O)nc32)ncc1C#N
8.32
N#Cc1cnc(NC(=O)N2CCCc3cc(CN4CC[C@H](O)C4=O)c(C=O)nc32)cc1OCC(F)F
8.32
COC(C)(C)CNc1cc(NC(=O)N2CCCc3cc(C(F)F)c(C=O)nc32)ncc1C#N
8.23
CC(C)(O)CNc1cc(NC(=O)N2CCCc3cc(C(F)F)c(C=O)nc32)ncc1C#N
8.80
COC[C@@H](C)Oc1cc(NC(=O)N2CCCc3cc(CN(C)C(C)=O)c(C=O)nc32)ncc1C#N
9.30
COCCOc1cc(NC(=O)N2CCCc3cc(CN4CCNCC4=O)c(C=O)nc32)ncc1C#N [trifluoroacetate]
8.34

P. CN1CCN(Cc2cc3c(nc2C=O)N(C(=O)Nc2cc(OCC(F)F)c(C#N)cn2)CCC3)C(=O)C1
Q. COC[C@@H](C)Oc1cc(NC(=O)N2CCCc3cc(CN4CCCC4=O)c(C=O)nc32)ncc1C#N
R. CC(C)Oc1cc(NC(=O)N2CCCc3cc(CN4CCN(C)CC4)c(C=O)nc32)ncc1C#N
S. CCC(=O)N(C)Cc1cc2c(nc1C=O)N(C(=O)Nc1cc(NCCOC)c(C#N)cn1)CCC2
Arrange these 4 compounds in increasing order of pIC50. Please express your ranking as an ordered list of the labels.
R, P, S, Q
(R: 8.52, P: 8.92, S: 9.22, Q: 9.52)

###

targetEntity: FGFR4 (GST-FGFR4(388-802)) (Homo sapiens (Human), UniProt P22455)
Sequence (P22455 388-802): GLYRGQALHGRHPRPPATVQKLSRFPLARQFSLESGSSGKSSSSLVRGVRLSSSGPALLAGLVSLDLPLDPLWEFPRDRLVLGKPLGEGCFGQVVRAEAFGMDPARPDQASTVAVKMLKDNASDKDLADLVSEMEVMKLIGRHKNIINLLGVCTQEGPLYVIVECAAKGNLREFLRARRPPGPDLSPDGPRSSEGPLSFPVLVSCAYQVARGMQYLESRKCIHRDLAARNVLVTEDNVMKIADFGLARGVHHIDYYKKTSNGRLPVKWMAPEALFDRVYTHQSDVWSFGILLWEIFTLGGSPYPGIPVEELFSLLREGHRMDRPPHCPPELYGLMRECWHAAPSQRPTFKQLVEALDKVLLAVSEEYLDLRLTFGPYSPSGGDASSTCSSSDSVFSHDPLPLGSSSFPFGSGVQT
experimentSummary: In-vitro biochemical kinase assay for FGFR4 (Caliper microfluidic mobility shift)
measurementConditions: read-out: Biochemical FGFR4 IC50
pIC50: −log10 of the molar value.
measurementLabel: pIC50

Worked set:
COCCNc1cc(NC(=O)N2CCCc3cc(CN(CCN(C)C)S(C)(=O)=O)c(C=O)nc32)ncc1C#N
8.64
CC(C)Oc1cc(NC(=O)N2CCCc3cc(CN4CCN(C)CC4=O)c(C=O)nc32)ncc1C#N
9.15
O=Cc1ccc2c(n1)N(C(=O)Nc1cc(Cl)c(Cl)cn1)CCC2
7.52
N#Cc1cnc(NC(=O)N2CCCc3ccc(C=O)nc32)cc1OC1CCOC1 (racemic)
9.15
N#Cc1cnc(NC(=O)N2CCCc3ccc(C=O)nc32)cc1C1=CCOCC1
8.26

1. CN1CCOC(CNc2cc(NC(=O)N3CCCc4cc(C(F)F)c(C=O)nc43)ncc2C#N)C1 (racemic)
2. N#Cc1cnc(NC(=O)N2CCCc3cc(CO)c(C=O)nc32)cc1OCC1CCCCO1 (racemic)
Hi there, can you help? I need to know whether 1 or 2 has lower measured pIC50. Provide the label of your selected option as the answer.
2
(2: 8.09, 1: 8.60)

###

targetEntity: Tel-FGFR4 (Homo sapiens (Human))
experimentSummary: In vitro cellular kinase assay for FGFR4 (BaF3-Tel-FGFR4 cells, MSD capture ELISA of tyrosine phosphorylation)
Assay type: cell-based
measurementConditions: Cellular BaF3 FGFR4 assay; read-out: Cellular IC50
measurementLabel: IC50 (nM)

Worked set:
CC(C)Nc1cc(NC(=O)N2CCCc3cc(C(F)F)c(C=O)nc32)ncc1C#N
20.3
COC[C@@H](C)Nc1cc(NC(=O)N2CCCc3cc(CN(C)C(C)=O)c(C=O)nc32)ncc1C#N
4.5
CN1CCN(Cc2cc3c(nc2C=O)N(C(=O)Nc2cc(NC(C)(C)C)c(C#N)cn2)CCC3)C(=O)C1
11.5

1. COCCNc1cc(NC(=O)N2CCCc3cc(CN4CC[C@@H](N(C)C)C4=O)c(C=O)nc32)ncc1C#N
2. CC(C)Oc1cc(NC(=O)N2CCCc3cc(CN4CCCC4)c(C=O)nc32)ncc1C#N
Hi there, can you help? I need to know whether 1 or 2 has lower measured IC50. Provide the label of your selected option as the answer.
1
(1: 3.9 nM, 2: 854 nM)

###

targetEntity: Tel-FGFR4 (Homo sapiens (Human), UniProt P22455)
experimentSummary: In vitro cellular kinase assay for FGFR4 (BaF3-Tel-FGFR4 cells, MSD capture ELISA of tyrosine phosphorylation)
Type: cell-based
measurementConditions: BaF3-Tel-FGFR4 cells, 1 hour incubation; read-out: Cellular BaF3 FGFR4 IC50
measurementLabel: IC50 (nM)

CN1CCN(Cc2cc3c(nc2C=O)N(C(=O)Nc2cc(OCCO)c(C#N)cn2)CCC3)C(=O)C1
19.3
COCCNc1cc(NC(=O)N2CCCc3cc(CN4CCSCC4=O)c(C=O)nc32)ncc1C#N
5.3
CC(=O)N(C)Cc1cc2c(nc1C=O)N(C(=O)Nc1cc(SC(C)C)c(C#N)cn1)CCC2
11.1

a. COCC(C)Oc1cc(NC(=O)N2CCCc3cc(CO)c(C=O)nc32)ncc1C#N (racemic)
b. N#Cc1cnc(NC(=O)N2CCCc3cc(CN4CCCC4=O)c(C=O)nc32)cc1OCC1CCNC(=O)C1 (racemic)
Hi there, can you help? I need to know whether a or b has lower measured IC50. Provide the label of your selected option as the answer.
a

###

targetEntity: FGFR4 (GST-FGFR4(388-802)) (Homo sapiens (Human))
experimentSummary: In-vitro biochemical kinase assay for FGFR4 (Caliper microfluidic mobility shift)
measurementConditions: biochemical FGFR4 assay; read-out: Biochemical IC50
measurementLabel: IC50 (nM)

Worked set:
COCCNc1cc(NC(=O)N2CCCc3cc(CN4CC[C@H](N(C)C)C4=O)c(C=O)nc32)ncc1C#N
0.9
COC(C)CNc1cc(NC(=O)N2CCCc3cc(C(F)F)c(C=O)nc32)ncc1C#N (centres unmarked)
1.1

A. COC[C@@H](C)Nc1cc(NC(=O)N2CCCc3cc(C(F)F)c(C=O)nc32)ncc1C#N
B. CC(=O)N(C)Cc1cc2c(nc1C=O)N(C(=O)Nc1cc(NCC3CN(C)CCO3)c(C#N)cn1)CCC2 (centres unmarked)
C. CC(=O)N(C)Cc1cc2c(nc1C=O)N(C(=O)Nc1cc(OCC(F)(F)F)c(C#N)cn1)CCC2
Kindly order the items shown according to IC50, from the highest value down. Please express your ranking as an ordered list of the labels.
B, A, C
(B: 2.6 nM, A: 1.2 nM, C: 0.5 nM)

###

targetEntity: FGFR4 (GST-FGFR4(388-802)) (Homo sapiens (Human), UniProt P22455)
experimentSummary: In-vitro biochemical kinase assay for FGFR4 (Caliper microfluidic mobility shift)
measurementConditions: read-out: Biochemical FGFR4 IC50
measurementLabel: IC50 (nM)

Worked set:
N#Cc1cnc(NC(=O)N2CCCc3cc(CO)c(C=O)nc32)nc1O[C@H]1CCOC1
27
COCCNc1cc(NC(=O)N2CCCc3cc(CN4CCS(=O)(=O)CC4=O)c(C=O)nc32)ncc1C#N
1.2
CN1CCC(COc2cc(NC(=O)N3CCCc4cc(CO)c(C=O)nc43)ncc2C#N)CC1
20
CC(C)Oc1cc(NC(=O)N2CCCc3cc(CN(C)C(=O)CN(C)C)c(C=O)nc32)ncc1C#N
0.4
COCCOc1cc(NC(=O)N2CCCc3cc(CN(C)C)c(C=O)nc32)ncc1C#N
160

a. N#Cc1cnc(NC(=O)N2CCCc3cc(CO)c(C=O)nc32)cc1OCC(O)CCCl (racemic)
b. COCC(C)Oc1cc(NC(=O)N2CCCc3cc(CO)c(C=O)nc32)ncc1C#N (racemic)
c. N#Cc1cnc(NC(=O)N2CCCc3cc(CN4CCCC4=O)c(C=O)nc32)cc1OCC1CCNC(=O)C1 (racemic)
Arrange these 3 molecules in increasing order of IC50. Please express your ranking as an ordered list of the labels.
a, b, c

Hey, just so you know, these numbers are from patent US9266883B2.
